Recorded values, source ChEMBL document CHEMBL1287781.

assay: Chemical stability of the compound in phosphate buffer at pH 7.4 after 7 days; format: physicochemical; conditions: read-out: Stability

Smiles Notation | remaining at 168 h
CCCCCCCCNC(=O)c1cn2c3c(c(N4CCN(C)CC4)c(F)cc3c1=O)OC[C@@H]2C | 100%
CCCCCCCC(=O)OCOC(=O)c1cn2c3c(c(N4CCN(C)CC4)c(F)cc3c1=O)OC[C@@H]2C | > 90%
CCCCCCCCCCCCCCCC(=O)OCOC(=O)c1cn2c3c(c(N4CCN(C)CC4)c(F)cc3c1=O)OC[C@@H]2C | > 93%
CCCCCCCCCCCCCCNC(=O)c1cn2c3c(c(N4CCN(C)CC4)c(F)cc3c1=O)OC[C@@H]2C | > 98%
CCCCCCNC(=O)c1cn2c3c(c(N4CCN(C)CC4)c(F)cc3c1=O)OC[C@@H]2C | 100%
CCCCNC(=O)c1cn2c3c(c(N4CCN(C)CC4)c(F)cc3c1=O)OC[C@@H]2C | > 97%
CCCCCCCCCCCC(=O)OCOC(=O)c1cn2c3c(c(N4CCN(C)CC4)c(F)cc3c1=O)OC[C@@H]2C | > 91%
CCCC(=O)OCOC(=O)c1cn2c3c(c(N4CCN(C)CC4)c(F)cc3c1=O)OC[C@@H]2C | > 92%

###

test: Toxicity in ip dosed B6D2F1 mouse after 28 days; type: organism-based; conditions: in vivo
In this section we review reported MTD at 672 h values for a set of molecules.

Smiles Notation | MTD at 672 h
CCCCCCCCCC(=O)OCOC(=O)c1cn2c3c(c(N4CCN(C)CC4)c(F)cc3c1=O)OC[C@@H]2C | > 80 mg/kg
CCCCCC(=O)OCOC(=O)c1cn2c3c(c(N4CCN(C)CC4)c(F)cc3c1=O)OC[C@@H]2C | > 80 mg/kg
CCCCCCCC(=O)OCOC(=O)c1cn2c3c(c(N4CCN(C)CC4)c(F)cc3c1=O)OC[C@@H]2C | > 80 mg/kg

###

test system: MCF7; test: Anticancer activity against human MCF7 by sulforhodamine B assay; format: functional, cell-based
pIC50: −log10 of the molar value.

Smiles Notation | pIC50
C[C@H]1COc2c(N3CCN(C)CC3)c(F)cc3c(=O)c(-c4nc5ccc([N+](=O)[O-])cc5s4)cn1c23 | < 5.00
